Biological target: GSK3b (GST-full length GSK3b) (Homo sapiens (Human))
Sequence (P49841 whole entry): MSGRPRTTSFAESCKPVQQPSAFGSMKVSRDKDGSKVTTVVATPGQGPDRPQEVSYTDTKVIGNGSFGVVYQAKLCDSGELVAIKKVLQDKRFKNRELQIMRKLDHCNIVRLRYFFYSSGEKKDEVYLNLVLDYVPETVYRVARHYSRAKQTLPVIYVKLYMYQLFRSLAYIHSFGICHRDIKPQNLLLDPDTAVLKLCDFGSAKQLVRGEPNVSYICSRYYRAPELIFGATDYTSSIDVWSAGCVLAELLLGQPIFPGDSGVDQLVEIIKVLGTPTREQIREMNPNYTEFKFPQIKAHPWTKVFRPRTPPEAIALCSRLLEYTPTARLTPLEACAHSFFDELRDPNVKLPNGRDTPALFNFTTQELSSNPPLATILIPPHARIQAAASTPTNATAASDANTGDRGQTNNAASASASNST
Test: GSK3b TR-FRET kinase assay
Format: biochemical
Details: 1 nM GSK3b, 2 μM ATP, 30 minute preincubation, Table 16; read-out: GSK3-B TR-FRET BIOCHEMICAL (TR-FRET); IC50
pIC50: −log10 of the molar value.
MEASURED ATTRIBUTE: pIC50

Request: What value of measured pIC50 is listed for CC[C@]1(c2cccc(N(c3cccnc3)C(C)C)c2)C2=C(CC(C)(C)CC2=O)Nc2n[nH]cc21 ?
Response: 5.30 to 6.00

Request: Field request: pIC50 | item: CC[C@]1(c2cccc(-c3cn(C)nc3C)c2)C2=C(CC(C)(C)NC2=O)Nc2n[nH]c(Cl)c21
Response: < 5.30

Request: Entry CC[C@]1(c2cccc(-c3c(C)cnc4c(C)cccc34)c2)C2=C(CC(C)(C)NC2=O)Nc2n[nH]cc21 : reported pIC50 = ?
Response: < 5.30

Request: Which measured pIC50 value corresponds to CCC1(c2cccc(N3CC(C)C(C)C3)c2)C2=C(CC(C)(C)CC2=O)Nc2n[nH]cc21 (centres unmarked) [Compound 918326] ?
Response: 6.00 to 7.00

Request: Item under review: CC[C@]1(c2cccc(-c3ccnc(C)c3)c2)C2=C(CC3(CCC3)NC2=O)Nc2n[nH]cc21 . Reported pIC50?
Response: 6.00 to 7.00

Request: Fill in the blank: the reported pIC50 of CC1(C)CC(=O)C2=C(C1)Nc1n[nH]cc1[C@]21CCC[C@H](C#N)C1 is ____.
Response: < 5.30

Request: Entry under review: CC[C@]1(c2cccc(N(C)C(=O)c3ccn(C)n3)c2)C2=C(CC(C)(C)CC2=O)Nc2n[nH]cc21 . Reported pIC50?
Response: 6.00 to 7.00

Request: Which pIC50 reading was recorded for the molecule CC[C@@]1(c2cccc(C(F)(F)F)c2)C2=C(CCN(c3cn(C)c(C)n3)C2=O)Nc2n[nH]cc21 ?
Response: < 5.30

Request: Param item = CC[C@]1(c2cccc(-c3cc(-c4ccccc4)nn3C(C)C)c2)C2=C(CC(C)(C)NC2=O)Nc2n[nH]cc21 ; retrieve measured pIC50.
Response: < 5.30

Request: // pIC50 lookup, key: CC1(C)CC(=O)C2=C(C1)Nc1n[nH]cc1C21CN(C(=O)c2ccccc2)C1
Response: < 5.30

Request: Data request, read-out pIC50, for CC[C@]1(c2ccccc2)C2=C(Nc3n[nH]cc31)[C@H](C)C[C@H](C)C2=O
Response: < 5.30

Request: Could you tell me which pIC50 is on file for CCc1cc(-c2cccc([C@@]3(CC)C4=C(CC(C)(C)NC4=O)Nc4n[nH]cc43)c2)n(C)n1 ?
Response: 6.00 to 7.00

Request: Item under review: CCC1(c2cccc(N(C)c3cccc(C(F)(F)F)n3)c2)C2=C(CC(C)(C)CC2=O)Nc2n[nH]cc21 (centres unmarked) . Reported pIC50?
Response: 6.00 to 7.00

Request: Recorded pIC50 for CCC1(c2cccc(-c3c(C)nn(C)c3C)c2)C2=C(CC(C)(C)CC2=O)Nc2n[nH]c(C)c21 (centres unmarked) [Compound 883995] , please?
Response: ≥ 7.00

Request: What does the data say about its pIC50? Entry: CC1(C)CC(=O)C2=C(C1)Nc1n[nH]cc1[C@@]21CCO[C@H](C(C)(C)C)C1
Response: < 5.30

Request: For CC[C@@]1(c2cccc(N3CCC3(C)C)c2)C2=C(CC(C)(C)CC2=O)Nc2n[nH]cc21 , what is its reported pIC50?
Response: 6.00 to 7.00

Request: For the molecule CCC1(c2cccc(-c3cn[nH]c3)c2)C2=C(CC(C)(C)CC2=O)Nc2n[nH]c(C)c21 (centres unmarked) [Compound 913025] , what pIC50 is on record?
Response: ≥ 7.00

Request: # input molecule: CCn1nccc1-c1cccc(C2(CC)C3=C(CC(C)(C)CC3=O)Nc3n[nH]cc32)c1 (centres unmarked) ; wanted: its pIC50
Response: ≥ 7.00

Request: # get_value(readout='pIC50', item= CC[C@]1(c2cccc([C@H]3CCOC3)c2)C2=C(CC(C)(C)CC2=O)Nc2n[nH]cc21 )
Response: 6.00 to 7.00

Request: // pIC50 lookup, key: CC1(C)CC(=O)C2=C(C1)Nc1n[nH]cc1C21CN(c2cccnc2)C1
Response: 5.30 to 6.00

Request: Endpoint output: pIC50 of CCC1(c2cccc(-c3cnn(C)c3)c2)C2=C(CC(C)(C)CC2=O)Nc2n[nH]c(C)c21 (centres unmarked) [Compound 913031] . Value?
Response: ≥ 7.00

Request: What value of pIC50 has been reported for the following molecule? CCC1(c2cccc(S(=O)(=O)C(C)C)c2)C2=C(CC(C)(C)CC2=O)Nc2n[nH]cc21 (centres unmarked) [Compound 913135]
Response: ≥ 7.00

Request: I'd like to know its pIC50. The molecule in question is CCC1(c2cccc(N(C)c3ccc(C(F)(F)F)nc3)c2)C2=C(CC(C)(C)CC2=O)Nc2n[nH]cc21 (centres unmarked)
Response: 6.00 to 7.00

Request: Returns the measured pIC50 for the input molecule. Input: CC1(C)CC(=O)C2=C(C1)Nc1n[nH]cc1C21CCN(c2ccncc2)CC1
Response: < 5.30

Request: What does the record list as pIC50 for CCC1(c2cccc(N3CCCc4ncccc43)c2)C2=C(CC(C)(C)CC2=O)Nc2n[nH]cc21 (centres unmarked) [Compound 917076] ?
Response: ≥ 7.00

Request: Using the record for CCC1(c2cccc(C(F)(F)F)c2)C2=C(CCN(c3cnn(C)c3)C2=O)Nc2n[nH]cc21 (centres unmarked) , report its pIC50.
Response: 6.00 to 7.00

Request: Please give the measured pIC50 for this molecule: CC[C@]1(c2cccc(-c3ccnc4c(C)cccc34)c2)C2=C(CC(C)(C)NC2=O)Nc2n[nH]cc21
Response: 6.00 to 7.00

Request: Give the measured pIC50 of CC[C@]1(c2cccc(C3CCCC3)c2)C2=C(CC(C)(C)CC2=O)Nc2n[nH]cc21 .
Response: < 5.30

Request: Which pIC50 reading was recorded for the molecule CCC1(c2cccc(C(F)(F)F)c2)C2=C(CCN(c3nn(C)cc3C)C2=O)Nc2n[nH]cc21 (centres unmarked) ?
Response: 5.30 to 6.00
